# Tested on: Pseudomonas aeruginosa
# METHOD_DESCRIPTION: Antimicrobial activity against Pseudomonas aeruginosa ATCC 27953 after 24 hrs by two-fold serial dilution method
# Type: functional
# CONDITION_PARAMETERS: ATCC 27953, 24 h
VALUE_KIND: MIC (µg/mL)

Study these solved cases before continuing.
COMPOUND | VALUE_UNITS | MIC
Cc1ccc(-n2nnc(C(=O)/C=C/c3ccc(C#N)cc3)c2C)cc1 | µg/mL | 8.25
Cc1ccc(-n2nnc(C3=NN(C(N)=S)C(c4ccc(F)cc4)C3)c2C)cc1 (stereo not given) | µg/mL | 16.5
O=C(O)c1cn(C2CC2)c2cc(N3CCNCC3)c(F)cc2c1=O [CIPROFLOXACIN] | µg/mL | 16.5

a = Cc1ccc(-n2nnc(C3=NN(C(=S)Nc4ccccc4)C(c4ccccc4)C3)c2C)cc1 (stereo not given)
b = Cc1ccc(-n2nnc(C3=NN(c4nc(-c5ccccc5)cs4)C(c4ccc(F)cc4)C3)c2C)cc1 (stereo not given)
*Q* // max by MIC over [ a , b ] Kindly give the label for the entry you pick.
*A* a
